target system: T1, EsCas13d, nuclease-dead (Eubacterium siraeum, UniProt B0MS50, R295A;H300A;R849A;H854A)
T1 sequence: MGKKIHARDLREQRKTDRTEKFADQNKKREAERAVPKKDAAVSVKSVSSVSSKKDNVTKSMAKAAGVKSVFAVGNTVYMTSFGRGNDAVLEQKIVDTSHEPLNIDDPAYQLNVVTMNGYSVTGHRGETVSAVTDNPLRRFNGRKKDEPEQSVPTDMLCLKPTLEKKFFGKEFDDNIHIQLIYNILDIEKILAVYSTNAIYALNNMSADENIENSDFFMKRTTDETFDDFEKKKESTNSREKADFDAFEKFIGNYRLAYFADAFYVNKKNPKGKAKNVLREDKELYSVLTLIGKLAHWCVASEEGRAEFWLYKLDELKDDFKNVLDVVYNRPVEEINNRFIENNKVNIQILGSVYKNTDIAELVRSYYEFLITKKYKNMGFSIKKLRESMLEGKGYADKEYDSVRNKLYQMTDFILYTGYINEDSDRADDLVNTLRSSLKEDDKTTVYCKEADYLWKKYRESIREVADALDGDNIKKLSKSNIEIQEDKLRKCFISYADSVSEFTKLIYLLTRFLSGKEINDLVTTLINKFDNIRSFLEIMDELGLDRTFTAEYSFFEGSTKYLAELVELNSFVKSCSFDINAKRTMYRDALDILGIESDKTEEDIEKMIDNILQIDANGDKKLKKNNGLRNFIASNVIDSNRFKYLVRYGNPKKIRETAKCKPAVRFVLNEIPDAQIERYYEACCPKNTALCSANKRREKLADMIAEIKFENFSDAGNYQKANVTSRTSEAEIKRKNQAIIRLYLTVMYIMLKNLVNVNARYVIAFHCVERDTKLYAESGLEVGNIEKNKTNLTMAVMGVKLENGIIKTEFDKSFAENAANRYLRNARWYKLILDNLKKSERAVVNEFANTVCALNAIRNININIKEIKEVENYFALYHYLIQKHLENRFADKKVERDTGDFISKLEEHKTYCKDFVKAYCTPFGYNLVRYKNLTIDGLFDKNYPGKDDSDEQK
assay explanation: crRNA (strand 1, pre-loaded); Mg2+; 40 mM Tris-HCl pH 7.5, 150 mM NaCl, 6 mM MgCl2, 1 mM DTT, 0.1% Tween-20, 0.2 mg/ml BSA; 25 C; 10 min per concentration, then washed
applied conditions: tags: His6-TwinStrep-SUMO cleaved; N-terminal SNAP kept (SNAP-Surface 488); label: 3' end held by stalled T7 RNA polymerase
// returns f unless Kd is strictly below 20 nM, in which case t

# count of solved cases: 6
Prompt: Determine if target 1 C7A (mixed) RNA 1: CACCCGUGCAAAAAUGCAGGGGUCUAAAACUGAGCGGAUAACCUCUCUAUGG RNA 2: GGGAAUGGAUCCACAUCUACGAAUUCGUACCAUAGAGAGGUUAUACGCUCACCGAGAUCGGAAGAGCACACGU shows Kd strictly lower than 20 nM.
Response: t

Prompt: Does target 2 MT 5'PFS AGA 3'PFS AGC (mixed) RNA 1: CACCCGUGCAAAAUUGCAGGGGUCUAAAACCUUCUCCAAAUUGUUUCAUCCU RNA 2: GGGAAUGGAUCCACAUCUACGAAUUCAGAAGGAUGAAACAAUUUGGAGAAGAGCAGAUCGGAAGAGCACACGU have Kd strictly under 20 nM?
Response: t

Prompt: Quick check: does target 1 MT 5'PFS GUC 3'PFS UUG (mixed) RNA 1: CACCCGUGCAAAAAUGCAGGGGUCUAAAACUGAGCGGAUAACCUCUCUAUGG RNA 2: GGGAAUGGAUCCACAUCUACGAAUUCGUCCCAUAGAGAGGUUAUCCGCUCAUUGAGAUCGGAAGAGCACACGU have Kd under 20 nM?
Response: t

Prompt: Does this binder meet the criterion Kd < 20 nM? target 1 insG 3' of 18,insA 3' of 13 (mixed) RNA 1: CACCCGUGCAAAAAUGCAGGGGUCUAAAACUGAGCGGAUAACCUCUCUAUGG RNA 2: GGGAAUGGAUCCACAUCUACGAAUUCGUACCAUAGGAGAGAGUUAUCCGCUCACCGAGAUCGGAAGAGCACACGU
Response: f

Prompt: Criterion: Kd strictly below 20 nM. Is it met by target 1 insG 3' of 18,insA 3' of 4 (mixed) RNA 1: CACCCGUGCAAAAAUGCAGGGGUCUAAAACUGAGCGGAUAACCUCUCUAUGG RNA 2: GGGAAUGGAUCCACAUCUACGAAUUCGUACCAUAGGAGAGGUUAUCCGCAUCACCGAGAUCGGAAGAGCACACGU ?
Response: f

Prompt: Given target 1 insA 3' of 13,insU 3' of 9 (mixed) RNA 1: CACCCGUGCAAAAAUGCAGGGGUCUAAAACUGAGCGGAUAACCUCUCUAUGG RNA 2: GGGAAUGGAUCCACAUCUACGAAUUCGUACCAUAGAGAGAGUUAUUCCGCUCACCGAGAUCGGAAGAGCACACGU , is recorded Kd strictly lower than 20 nM?
Response: t

---
Prompt: hey, is Kd for target 2 MT 5'PFS CGG 3'PFS UGA (mixed) RNA 1: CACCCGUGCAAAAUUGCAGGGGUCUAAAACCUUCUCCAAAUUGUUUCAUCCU RNA 2: GGGAAUGGAUCCACAUCUACGAAUUCCGGAGGAUGAAACAAUUUGGAGAAGUGAAGAUCGGAAGAGCACACGU lower than 20 nM or not?
Response: t

Prompt: Is it true that Kd reported for target 3 C1G,U2C (mixed) RNA 1: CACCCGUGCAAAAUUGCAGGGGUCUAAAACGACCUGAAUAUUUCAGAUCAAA RNA 2: GGGAAUGGAUCCACAUCUACGAAUUCGUUUUUGAUCUGAAAUAUUCAGGCGUGCAGAUCGGAAGAGCACACGU is less than 20 nM?
Response: t

Prompt: Determine whether this binder shows Kd lower than 20 nM (ties excluded): target 3 insC 3' of 22,insA 3' of 6 (mixed) RNA 1: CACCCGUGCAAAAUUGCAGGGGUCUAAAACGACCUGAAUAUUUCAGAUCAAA RNA 2: GGGAAUGGAUCCACAUCUACGAAUUCGUUUCUUGAUCUGAAAUAUUCAAGGUCUGCAGAUCGGAAGAGCACACGU
Response: t

Prompt: # strict comparison: is reported Kd < 20 nM? input = target 1 insG 3' of 22,insU 3' of 22 (mixed) RNA 1: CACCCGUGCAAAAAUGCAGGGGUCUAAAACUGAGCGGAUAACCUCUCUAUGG RNA 2: GGGAAUGGAUCCACAUCUACGAAUUCGUACGUCAUAGAGAGGUUAUCCGCUCACCGAGAUCGGAAGAGCACACGU
Response: f

Prompt: # check: Kd < 20 nM for target 1 MT 5'PFS AAG 3'PFS ACA (mixed) RNA 1: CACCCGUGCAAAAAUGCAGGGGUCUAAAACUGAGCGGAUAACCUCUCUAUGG RNA 2: GGGAAUGGAUCCACAUCUACGAAUUCAAGCCAUAGAGAGGUUAUCCGCUCAACAAGAUCGGAAGAGCACACGU
Response: f

Prompt: Strictly below 20 nM in Kd? target 3 U2A,U8A (mixed) RNA 1: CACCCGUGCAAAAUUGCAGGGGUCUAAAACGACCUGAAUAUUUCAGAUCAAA RNA 2: GGGAAUGGAUCCACAUCUACGAAUUCGUUUUUGAUCUGAAAUAAUCAGGACUGCAGAUCGGAAGAGCACACGU
Response: f

Prompt: Kd strictly < 20 nM for this binder? target 1 U8C,C21A (mixed) RNA 1: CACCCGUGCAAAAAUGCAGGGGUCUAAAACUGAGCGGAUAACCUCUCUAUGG RNA 2: GGGAAUGGAUCCACAUCUACGAAUUCGUACAAUAGAGAGGUUACCCGCUCACCGAGAUCGGAAGAGCACACGU
Response: f

Prompt: Threshold test, Kd < 20 nM: target 2 MT 5'PFS GGA 3'PFS AGA (mixed) RNA 1: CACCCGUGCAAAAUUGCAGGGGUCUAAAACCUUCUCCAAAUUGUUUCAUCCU RNA 2: GGGAAUGGAUCCACAUCUACGAAUUCGGAAGGAUGAAACAAUUUGGAGAAGAGAAGAUCGGAAGAGCACACGU
Response: t
